# Test system: HT29 colon
# experimental_protocol: NCI-60 one-dose screen, 48 h (100 = growth as untreated, 0 = no growth, -100 = all killed)
# measurement_setup: 10 µM unless noted
The panel holds about 83,000 compounds, 20% with a hit somewhere; the sample as a whole holds those more often. The source made the active and inactive calls. The calls were made as follows: active = growth percent below 10; inactive = the rest.

compound	system_tested	growth
CNC(=O)NCC1OC(n2cnc3c(NC(=O)Nc4ccccc4)ncnc32)C2OC(C)(C)OC12 (stereo not drawn)	HT29 colon	98.5% (inactive)
C=CCOc1cccc(/C=C2\SC(=Nc3ccc(O)cc3)NC2=O)c1	HT29 colon	11.7% (inactive)
C=CCN1C(=O)[C@]2(SC1=S)[C@H](c1cccc(Cl)c1)CN(C)[C@]21C(=O)NC2C=CC(Cl)=C[C@H]21 (stereo partly drawn)	HT29 colon	27.9% (inactive)
CS(=O)(=O)c1ccc(-c2nc3cc(Cl)ccc3n2CC(=O)NO)cc1	HT29 colon	95.6% (inactive)
CN1CCN(C(=O)[C@@]2(C)CC[C@]3(C)CC[C@]4(C)C(=CC[C@@H]5[C@@]6(C)C/C(=C/c7ccncc7)C(=O)C(C)(C)[C@@H]6CC[C@]54C)[C@@H]3C2)CC1	HT29 colon	10.9% (inactive)
CO/C(=C1/NC(=O)C(Cc2ccc(O)c(Br)c2)N(C)C(=O)C(C)NC(=O)CCC/C=C(\C)CCC(C)OC1=O)c1ccccc1 (stereo not drawn)	HT29 colon	5.97% (active)
COc1cc(/C=C/C(=O)c2ccc(Nc3nc(Nc4ccccc4)nc(Nc4ccc(Cl)cc4)n3)cc2)cc(OC)c1OC	HT29 colon	46.8% (inactive)
Cc1c(Cl)cccc1NS(=O)(=O)c1ccccc1	HT29 colon	99.8% (inactive)
CCN1CCN(c2ccc(Nc3cc(-c4cccnc4Nc4c(Cl)c(OC)cc(OC)c4Cl)ncn3)cc2)CC1	HT29 colon	31.9% (inactive)
CCCCN1CCN(c2ccc3nc(-c4ccc5nc(-c6cc(OC)c(OC)c(OC)c6)[nH]c5c4)[nH]c3c2)CC1	HT29 colon	56% (inactive)
C#C[C@]1(O)CC[C@H]2[C@@H]3CC=C4c5sc(N=C(N)N)nc5CC[C@]4(C)[C@H]3CC[C@@]21C	HT29 colon	-0.997% (active)
CC(C)OC(=O)OCOP(=O)(OCOC(=O)OC(C)C)C1CCCN(O)C1=O (stereo not drawn)	HT29 colon	5.87% (active)
COc1ccc(/C=C2\C=C(c3ccccc3)N(CCc3ccccc3)C2=O)cc1OC	HT29 colon	38.6% (inactive)
c1ccc([P+](CCCc2n(Cc3ccc4ccccc4c3)c3ccccc3[n+]2Cc2ccc3ccccc3c2)(c2ccccc2)c2ccccc2)cc1	HT29 colon	23.9% (inactive)
CC[C@@H](C[C@H](CCO)c1ccccc1)c1cc2ccccc2o1	HT29 colon	82.7% (inactive)
CCOC(=O)c1c(C)nc2c(c1N)/C(=C/c1cc(OC)c(OC)c(OC)c1)C(=O)N2c1ccc(OC)cc1	HT29 colon	26.2% (inactive)
NC(=Nc1ccc(N)cc1)C(N)=Nc1ccc(N)cc1	HT29 colon	113% (inactive)
CC1(C)CC(=O)c2c(ccc(C(=O)C[C@H](N)CO)c2N)O1	HT29 colon	2.53% (active)
